Known koff of a selection of binders
# Measurement target: T1, human interleukin-2 receptor β-chain (IL-2Rβ; CD122), recombinant protein (human, UniProt P14784 27-240)
# T1 construct: also called human IL-2R subunit CD122
# T1 sequence: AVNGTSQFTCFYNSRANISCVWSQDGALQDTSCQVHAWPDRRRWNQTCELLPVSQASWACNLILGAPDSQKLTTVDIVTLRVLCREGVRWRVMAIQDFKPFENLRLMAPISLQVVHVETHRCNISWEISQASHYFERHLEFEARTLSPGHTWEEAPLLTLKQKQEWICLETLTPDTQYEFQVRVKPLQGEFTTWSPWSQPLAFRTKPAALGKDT
# Experiment notes: P.E. off-rate SPR

- Binder: "23-MP06F03 VHH (periplasmic extract) (VHH, soluble VHH in periplasmic extract) VHH: QVQLVESGGGLVQAGGSLRLSCAVSGDVFVRYTMAWFRQAPGKEREFVASVTDSGRTTDYVHSVKGRFTVSRDNAKNTVYLQMNNLKPEDTAVYYCAANTDYFQIKSLDANTWGQGTQVTVSS"
  koff / s⁻¹: 0.00105
- Binder: "19-MP03F08 VHH (periplasmic extract) (VHH, soluble VHH in periplasmic extract) VHH: EVQLVESGGGLVQTGGSLRLSCAASGGTFSRDAMAWFRQVPGKEREFVALISWSGATTNYADSVKGRFAISRDNGKNTVYLQMNRLKPADTAIYYCAADRRPMGSRSYFEPTEYDDWGQGTQVTVSS"
  koff / s⁻¹: 0.000296
- Binder: "20-MP03F10 VHH (periplasmic extract) (VHH, soluble VHH in periplasmic extract) VHH: EVQLVESGGGLVQAGGSLRLSCAASGRDFSSYAMGWFRQAPGKEREFVVAITWTKRSTDFPDSVKGRFTISRDNAKNTVYLDMNSLKPEDTAVYYCASARGLPVTPLGDIIYWGEGTLVTVSS"
  koff / s⁻¹: 0.000595
- Binder: "22-MP03F12 VHH (periplasmic extract) (VHH, soluble VHH in periplasmic extract) VHH: EVQLVESGGGLVQAGGSLRLSCAASGSIFSINAMAWFRQVPGMERELVAAISRDGGASVYRDSVKGRFTISRDNSKNTVYLQMNTLKPEDTAIYVCAATRAIGWTARWITTDFDFWGQGTQVTVSS"
  koff / s⁻¹: 0.000419

Value source: patent US20240409645A1
